Value source: PubChem BioAssay (Tox21)

Assay: qHTS RealTime-Glo MT Cell Viability Assay in HEK293 cells - 40 hour (AID 1224874); also: % is scaled to controls: 0 for no effect and ±100 for the full control effect; nearly all actives have a fitted effect of over 50% in size
Conditions: RealTime-Glo luminescence; stronger effect = lower value
Results filed as inconclusive are left out.
max response values for the molecules below.
MEASURED METRIC: max response (%)

MOLECULE | DISPLAY UNIT | OBS VALUE
CCCCOc1ccc(OCCCN2CCOCC2)cc1 | % | -27.6
Cc1ccc(OC(=O)c2ccccc2O)cc1 | % | -11.7
CCOC(=O)[C@H](CCc1ccccc1)N[C@@H](C)C(=O)N(CC(=O)O)C1Cc2ccccc2C1 | % | 5.01
Cc1ccccc1S | % | -6.46
O=C(Nc1cccc2c(=O)cc(-c3nn[nH]n3)oc12)c1ccc(OCCCCc2ccccc2)cc1 | % | -0.852
COC(=O)C1=C(C)NC(C)=C(C(=O)O[C@@H]2CCCN(Cc3ccccc3)C2)[C@@H]1c1cccc([N+](=O)[O-])c1 | % | -29.2
CCOc1cccc(-n2cc(C(=O)N3CCN(c4cc(C(=O)O)c5ccccc5c4)CC3)nc2-c2ccc(C)cc2)c1 | % | 7.68
CC1=C(CC=O)C(C)(C)CCC1 | % | -9.82
Cc1c(C)c2c(c(C)c1OC(=O)CCC(=O)OCCO)CC[C@@](C)(CCC[C@H](C)CCC[C@H](C)CCCC(C)C)O2 | % | -18.9
Cc1ccc(C(C)(C)O)cc1 | % | -0.324
CCCCCCC(C)(C)C(=O)O | % | 4.14
CC1=Nc2ccc3ccccc3c2C1(C)C | % | -26.2
CC1CC(OC(=O)C(O)c2ccccc2)CC(C)(C)N1C (stereo unspecified) | % | 0.136
C=Cc1ccc(S(=O)(=O)O)cc1 | % | -10.1
CC(CCC(=O)O)C(=O)O (stereo unspecified) | % | 0
N#CCc1ccc(Cl)cc1Cl | % | -14.5
O=C(/C=C/c1ccc(O)c(O)c1)O[C@@H]1C[C@@](OC(=O)/C=C/c2ccc(O)c(O)c2)(C(=O)O)C[C@@H](O)[C@@H]1O | % | 3.32
CC/C=C1/OC(=O)c2ccccc21 | % | -7.38
CCCCCCCCCCC(=O)O | % | 3.53
CN1C(=O)OC(C)(C)C1=O | % | 0.839
C=C(C)[C@@H]1CCC2=CCC[C@@H](C)[C@]2(C)C1 | % | 0.724
O=C(O)c1ccc(OCCCOc2ccc(C(=O)O)cc2)cc1 | % | 1.73
Nc1nnc(-c2ccc([N+](=O)[O-])o2)o1 | % | -27
CC1(C)[C@H](C(=O)O)N2C(=O)C[C@H]2S1(=O)=O | % | 1.99
NCCNCCO | % | 20.2
C=C/C(C)=C/C/C=C(\C)CCC=C(C)C | % | -7.52

###

Assay: qHTS assay to test for compound auto fluorescence at 590 nm (red) in HepG2 cell free culture (AID 720684); also: % is scaled to controls: 0 for no effect and ±100 for the full control effect
Conditions: cell-free medium autofluorescence, red 540/590 nm; series mostly up to 91.3 µM
Active and inactive are the calls of the source. The call rests on the fitted dose curve; in most records, active means well fitted curve in the direction sought with a large enough effect in the repeat runs; inconclusive means weak or mixed curves; inactive means flat fitted curve, though single readings scatter.

MOLECULE | fluorescence, % of Rose Bengal
CCCCCCCCN | inactive
O=[N+]([O-])c1ccc(O/N=C/c2cc(Br)c(O)c(Br)c2)c([N+](=O)[O-])c1 | inactive
O=C=Nc1cccc(C(F)(F)F)c1 | inactive
CN(C)CCN1C(=O)c2ccccc2N(C)c2ccccc21 | inactive
CN1C(C(=O)Nc2ccccn2)=C(O)c2sccc2S1(=O)=O | -0.0396% [at 18.6 µM] (inactive)
CC1CC(C)C(=O)C1=O (configuration not stated) | inactive
Nc1nc2ccc([N+](=O)[O-])cc2s1 | inactive
C[C@H]1c2cccc(O)c2C(O)=C2C(=O)[C@]3(O)C(O)=C(C(N)=O)C(=O)[C@@H](N(C)C)[C@@H]3[C@@H](O)[C@@H]21 | inactive
CC/C=C1/OC(=O)c2ccccc21 | inactive
CC(CN(C)C)C(C)(O)Cc1ccc(Cl)cc1 (configuration not stated) | inactive
O[C@@H]1CO[C@H]2[C@@H]1OC[C@@H]2O | inactive
CC(C)COCC(CN(Cc1ccccc1)c1ccccc1)N1CCCC1 (configuration not stated) | inactive
